- TEST: in vivo PK, rhesus IV cassette
- CONDITION DETAILS: rhesus monkey, plasma
MEASURED QUANTITY: half-life (h)
Respond numerically; units are h and should not be typed.

Q. Quick one: half-life for Fc1ccc(Nc2n[nH]c3cccnc23)cc1Cl ?
A. 3

----------
- TEST: in vivo PK, rhesus IV cassette
- CONDITION DETAILS: rhesus monkey, plasma
MEASURED QUANTITY: clearance (mL/min/kg)
API: value field is a number in mL/min/kg; no unit string.

Q. May I ask what clearance has been recorded for Fc1ccc(Nc2n[nH]c3cccnc23)cc1Cl [Compound 26] ?
A. 13

----------
MEASURED QUANTITY: IC50 (µM)
Supply the numeric figure in µM, leaving out any unit text.

Q. Value wanted: IC50 (CYP2C19 (Homo sapiens)) of entry Fc1ccc(Nc2n[nH]c3cccnc23)cc1Cl
A. 6.1
